# PROCEDURE_DETAILS: Oral bioavailability from crystalline suspension in dog (plasma PK, LC/MS/MS)
# Type: in vivo, beagle dogs
# ASSAY_SETUP: male, beagle, dog, plasma, po, 3 mg/kg, PO 3 mg/kg suspension, pentagastrin pretreated dogs, mean n = 3; read-out: F (oral bioavailability)
PARAMETER: bioavailability (%)
Give the value in % but do not write % after it.

Item "CNC(=O)c1c(O)c2ncc(Cc3ccc(F)cc3)c3c2n(c1=O)C[C@](C)(c1nnc(C)o1)O3" has what recorded bioavailability?
45

* * *

# PROCEDURE_DETAILS: Aqueous solubility in buffers, HPLC-UV
# Assay type: physicochemical
# ASSAY_SETUP: aqueous buffer, thermodynamic from solid, pH 7.3, room temperature, 24 to 48 hours
PARAMETER: solubility (µg/mL)
Give the value in µg/mL but do not write µg/mL after it.

INSERT INTO results (molecule, quantitative_readout) VALUES
  ('CNC(=O)c1c(O)c2ncc(Cc3ccc(F)cc3)c3c2n(c1=O)C[C@](C)(c1nnc(C)o1)O3', 31.6);

Item CNC(=O)c1c(O)c2ncc(Cc3ccc(F)cc3)c3c2n(c1=O)C[C@H](C(=O)NC)O3 [Comparator Compound, reference compound] has what recorded solubility?
1

* * *

# PROCEDURE_DETAILS: Oral bioavailability from crystalline suspension in dog (plasma PK, LC/MS/MS)
# Assay type: in vivo, beagle dogs
# ASSAY_SETUP: male, beagle, dog, plasma, po, 3 mg/kg, PO 3 mg/kg suspension, dog plasma, individual dogs; read-out: AUClast
PARAMETER: AUC(0-t)
The number alone won't do; follow it with the unit.

Item "CNC(=O)c1c(O)c2ncc(Cc3ccc(F)cc3)c3c2n(c1=O)C[C@](C)(c1nnc(C)o1)O3" has what recorded AUC(0-t)?
19.1 µM·h

* * *

# PROCEDURE_DETAILS: Oral bioavailability from crystalline suspension in dog (plasma PK, LC/MS/MS)
# Format: in vivo, beagle dogs
# ASSAY_SETUP: male, beagle, dog, plasma, po, 3 mg/kg, PO 3 mg/kg suspension, dog, individual dogs; read-out: F (oral bioavailability)
PARAMETER: bioavailability (%)
Give the value in % but do not write % after it.

Item CNC(=O)c1c(O)c2ncc(Cc3ccc(F)cc3)c3c2n(c1=O)C[C@](C)(c1nnc(C)o1)O3 [Compound (Ia)] has what recorded bioavailability?
47

* * *

# PROCEDURE_DETAILS: Aqueous solubility in buffers, HPLC-UV
# Assay type: physicochemical
# ASSAY_SETUP: aqueous buffer, thermodynamic from solid, pH 2.2, room temperature, 24 to 48 hours
PARAMETER: solubility
The number alone won't do; follow it with the unit.

INSERT INTO assay_data (compound, result) VALUES
  ('CNC(=O)c1c(O)c2ncc(Cc3ccc(F)cc3)c3c2n(c1=O)C[C@](C)(c1nnc(C)o1)O3', '29.4 µg/mL');

Item CNC(=O)c1c(O)c2ncc(Cc3ccc(F)cc3)c3c2n(c1=O)C[C@H](C(=O)NC)O3 [Comparator Compound, reference compound] has what recorded solubility?
1 µg/mL

* * *

# PROCEDURE_DETAILS: Oral bioavailability from crystalline suspension in dog (plasma PK, LC/MS/MS)
# Type: in vivo, beagle dogs
# ASSAY_SETUP: male, beagle, dog, plasma, po, 4 mg/kg, PO 4 mg/kg suspension, pentagastrin pretreated dogs, mean n = 3; read-out: F (oral bioavailability)
# Experimental: Oral Bioavailability-Determination of Oral Bioavailability of Integrase Inhibitors from Crystalline Suspension in Dog The in-life phase of these studies was carried out at SRI, Menlo Park, Calif. […] Dosing solutions were analyzed using un-used portions of the dosing solutions, and aliquots of approximately 1 mL of each dosing solution were saved. The concentration of compound in the dosing solution was measured with an HPLC-UV method. […]
PARAMETER: bioavailability (%)
Give the value in % but do not write % after it.

Item CNC(=O)c1c(O)c2ncc(Cc3ccc(F)cc3)c3c2n(c1=O)C[C@H](C(=O)NC)O3 [Comparator Compound, reference compound] has what recorded bioavailability?
0.2

// data source = patent US20110223131A1
